Data provenance is ChEMBL document CHEMBL1201862.

Test system: BT-549
experiment: NCI tumour cell line growth inhibition, 48 h
Activity calls are given as the source filed them. No stated cut-off is given here; in the data, active = GI50 up to about 1.1 µM and inactive = higher.
Record form. Attribute: GI50. Fill in for each entry.

INPUT: Item CC(=O)N(C(=O)CC(=O)N1N=C(c2ccccc2)C(/N=N/c2ccccc2[N+](=O)[O-])C1=O)c1ccc(Cl)cc1 (stereo not drawn) has what recorded GI50?
OUTPUT: > 10 µM (inactive)

INPUT: Item CC1(C)C(O)C[C@]23CCC[C@](C)(C[C@@H](O)C12)C3 (stereo partly drawn) has what recorded GI50?
OUTPUT: > 100 µM (inactive)

INPUT: Item CN(C)S(=O)(=O)c1nc(Cl)c2nc[nH]c2n1 has what recorded GI50?
OUTPUT: > 100 µM (inactive)

INPUT: Item COc1ccc2c(c1)C/C(=C\c1ccc(O)c(OC)c1)C2=O has what recorded GI50?
OUTPUT: > 100 µM (inactive)

INPUT: Item CC1=NCCN=C(C)C1/N=N/c1ccc2[nH]c(C)nc2c1 has what recorded GI50?
OUTPUT: 9.08 µM (inactive)

INPUT: Item O=c1[nH]c(=O)n(C2CC(O)C(CS)O2)cc1F (stereo not drawn) has what recorded GI50?
OUTPUT: > 100 µM (inactive)

INPUT: Item O=c1[nH]c2cccc([N+](=O)[O-])c2c(=O)n1-c1ccc(Cl)cc1 has what recorded GI50?
OUTPUT: 10.7 µM (inactive)

INPUT: Item COc1cc(N(CCC#N)CCC#N)ccc1C(=N/NC(=O)c1cc(Br)ccc1O)/N=N/c1ccccc1 has what recorded GI50?
OUTPUT: 20.8 µM (inactive)

INPUT: Item NC(=O)C(=O)C(c1ccccc1)S(=O)(=O)Cc1ccccc1 (stereo not drawn) has what recorded GI50?
OUTPUT: > 100 µM (inactive)

INPUT: Item NC1CC(=O)c2sc(I)cc21 (stereo not drawn) has what recorded GI50?
OUTPUT: > 100 µM (inactive)

INPUT: Item O=C1Nc2ccccc2NC1C1OC(c2ccccc2)=CC1=O (stereo not drawn) has what recorded GI50?
OUTPUT: > 100 µM (inactive)

INPUT: Item Cc1nc2ccccc2c(=O)n1NC(=O)c1ccc([N+](=O)[O-])cc1 has what recorded GI50?
OUTPUT: > 100 µM (inactive)

INPUT: Item COc1cc(C(c2c(O)c3ccccc3oc2=O)c2c(O)c3ccccc3oc2=O)ccc1O has what recorded GI50?
OUTPUT: 19.1 µM (inactive)

INPUT: Item CCOC(=O)CNC1=NNS(=O)(=O)c2ccccc21 has what recorded GI50?
OUTPUT: > 100 µM (inactive)

INPUT: Item CC(=N/NC(=S)N1CCCCCC1)/C(C)=N\NC(=S)N1CCCCCC1 has what recorded GI50?
OUTPUT: 5.27 µM (inactive)

INPUT: Item O=C(c1ccc(F)cc1)c1cccc(C(=O)c2ccc(F)cc2)n1 has what recorded GI50?
OUTPUT: 12.2 µM (inactive)

INPUT: Item COc1ccc(-n2c(=O)c3nc(S)[nH]c3n(-c3ccc(OC)cc3)c2=S)cc1 has what recorded GI50?
OUTPUT: > 100 µM (inactive)

INPUT: Item [N-]=[N+]=CC(=O)OC1Cc2ccccc2C1 has what recorded GI50?
OUTPUT: > 100 µM (inactive)

* * *

System: TK-10
experiment: NCI tumour cell line growth inhibition, 48 h
Active and inactive are the calls of the source. No stated cut-off is given here; in the data, active = GI50 up to about 1.1 µM and inactive = higher.
// allowed return values: Y (active), N (inactive)

INPUT: So what was the verdict on COc1cc(C2C3=C(COC3=O)Oc3cc4c(cc32)OCO4)ccc1OC(C)=O (stereo not drawn) in this test?
OUTPUT: N

INPUT: So what was the verdict on COc1cccc(NC(=O)CC(=O)Nc2cccc(OC)c2)c1 in this test?
OUTPUT: N

INPUT: So what was the verdict on CCCCNC1=C(C(=O)OCC)/C(=N/NC(=O)c2ccccc2O)CO1 in this test?
OUTPUT: N

INPUT: So what was the verdict on O=C(O)c1ccccc1/C=N\N(CCO)C1=NCCN1 in this test?
OUTPUT: N

INPUT: So what was the verdict on C(=NCCN1CCOCC1)=NC1CCCCC1 in this test?
OUTPUT: N

INPUT: So what was the verdict on CCN1C(=O)/C(=C\Nc2ccccc2)S/C1=N/Nc1ncc(CC(=O)Nc2ccccc2C)s1 in this test?
OUTPUT: N

INPUT: So what was the verdict on CC(CSC(=N)N)C(N)=O (stereo not drawn) in this test?
OUTPUT: N

INPUT: So what was the verdict on OCc1ccc2[n+](c1)CCC1c3ccccc3NC21 (stereo not drawn) in this test?
OUTPUT: N

INPUT: So what was the verdict on Cc1ccc(S(=O)(=O)N2CCNCCN(S(=O)(=O)c3ccc(C)cc3)CCN(S(=O)(=O)c3ccc(C)cc3)CC2)cc1 in this test?
OUTPUT: N

INPUT: So what was the verdict on CCOC(=O)CNC1=NNS(=O)(=O)c2ccccc21 in this test?
OUTPUT: N

INPUT: So what was the verdict on Cc1ccc(C(=O)N2CCCCC2)cc1/N=N/N(C)C in this test?
OUTPUT: N

INPUT: So what was the verdict on COC(=O)c1c2c(cc3c1CC1(Cc4ccc(C(C)=O)cc4C1)C3)CCC2 (stereo not drawn) in this test?
OUTPUT: N

INPUT: So what was the verdict on FC(F)(F)c1cccc2ns[s+]c12 in this test?
OUTPUT: N

INPUT: So what was the verdict on O=C(N/C(=C\c1c(O)ccc2ccccc12)c1nc2ccccc2[nH]1)c1ccccc1 in this test?
OUTPUT: N

INPUT: So what was the verdict on CCCCOCCOCCOC1=C(Cl)C(=O)c2c(O)ccc(O)c2C1=O in this test?
OUTPUT: N

INPUT: So what was the verdict on O=C(c1ccc(F)cc1)c1cccc(C(=O)c2ccc(F)cc2)n1 in this test?
OUTPUT: N

INPUT: So what was the verdict on CCn1c2c(c3ccccc31)C(c1ccccc1)CC1C(=O)N(c3ccccc3)C(=O)C21 (stereo not drawn) in this test?
OUTPUT: N

INPUT: So what was the verdict on CCCCN(CCCC)CC(O)c1cc(-c2ccc(C(F)(F)F)cc2)nc(-c2ccc(C(F)(F)F)cc2)c1 (stereo not drawn) in this test?
OUTPUT: N

INPUT: So what was the verdict on C/C(CC(=O)Nc1cccc(Cl)c1C)=N\N=C(N)N in this test?
OUTPUT: N

INPUT: So what was the verdict on CCN(CC)CCNC(=O)c1cccc2cc3ccccc3nc12 in this test?
OUTPUT: N

INPUT: So what was the verdict on Cc1coc2c1[C@@H](O)[C@@]1(C)[C@H](CCC[C@@H]1C)C2 in this test?
OUTPUT: N

INPUT: So what was the verdict on Cc1n(CC(C)C)c2c([n+]1C)C(=O)c1ccccc1C2=O in this test?
OUTPUT: Y

INPUT: So what was the verdict on COC(=O)C[C@](O)(CCCC(C)(C)O)C(=O)O[C@@H]1C(OC)=C[C@]23CCCN2CCc2cc4c(cc2[C@H]13)OCO4 [OMACETAXINE MEPESUCCINATE] in this test?
OUTPUT: N

INPUT: So what was the verdict on O=C(C1OC1c1ccc(O)cc1)C12CC3CC(CC(C3)C1)C2 (stereo not drawn) in this test?
OUTPUT: N

INPUT: So what was the verdict on COC(=O)c1cc2c(c3c1CC(Cc1ccccc1)C3=O)CCC2 (stereo not drawn) in this test?
OUTPUT: N

INPUT: So what was the verdict on CC(C)(C)c1cc(CCCCCCCC2(CCCCCCCc3cc(C(C)(C)C)cc(C(C)(C)C)c3)OC(COCCOCCCCCC#N)C(COCCOCCCCCC#N)O2)cc(C(C)(C)C)c1 (stereo not drawn) in this test?
OUTPUT: N

INPUT: So what was the verdict on COc1ccc(/C=C2\CC3C4CC=C5C[C@@H](N6CCCC6)CC[C@]5(C)C4CC[C@]3(C)[C@H]2O)cc1OC (stereo partly drawn) in this test?
OUTPUT: N

INPUT: So what was the verdict on C=C1C(=O)O[C@H]2C/C(C)=C/CC[C@@]3(C)O[C@](C)(CC[C@@H]3I)[C@@H](I)C[C@@H]12 in this test?
OUTPUT: N

* * *

Test system: SNB-75
experiment: NCI tumour cell line growth inhibition, 48 h
Calls of active or inactive are those of the source. Rule as the data show it: active = GI50 up to about 1.1 µM and inactive = higher.
recorded metric: GI50

INPUT: Item COc1cc2oc(=O)ccc2cc1CC=C(C)C [SUBEROSIN] has what recorded GI50?
OUTPUT: 41.1 µM (inactive)

INPUT: Item C[N+](C)(C)CC1CCCC(C[N+](C)(C)C)C1O (configuration not stated) has what recorded GI50?
OUTPUT: > 100 µM (inactive)

INPUT: Item CCN(CC)CCNC(=O)c1cccc2cc3ccccc3nc12 has what recorded GI50?
OUTPUT: 7.71 µM (inactive)

INPUT: Item [N-]=[N+]=Nc1ccccc1-c1ccccc1[N+](=O)[O-] has what recorded GI50?
OUTPUT: 50 µM (inactive)

INPUT: Item CCN(CC)C(=O)C(C)n1cc(C)c(=O)[nH]c1=O (configuration not stated) has what recorded GI50?
OUTPUT: 15.1 µM (inactive)

INPUT: Item N/C(=N\O)N/N=C/c1cccs1 has what recorded GI50?
OUTPUT: 20 µM (inactive)

INPUT: Item COc1cc2c(cc1C)NC(=O)/C2=C/c1c(Cl)n(C)c2ccccc12 has what recorded GI50?
OUTPUT: 3.34 µM (inactive)
